Recorded activation at 0.37 µM for the following compounds
# Test system: hiPSC-derived neurons co-cultured with human primary astrocytes in 2D
# Assay Summary: Ca2+ transient oscillation assay (FDSS), 2D co-culture
# Format: cell-based
# Assay Conditions: Homo sapiens, 1 h; 0.37 µM; 60 min; read-out: Peak Number—2D Mean
Express it in %; write the number only.

Would you please look over these solved cases?
[[record]]
compound = "CCn1cc(C(=O)O)c(=O)c2cc(F)c(N3CCNCC3)nc21"
experimental_target = "hiPSC-derived neurons co-cultured with human primary astrocytes in 2D"
observable = "activation at 0.37 µM"
measured = 1.3

[[record]]
compound = "Nc1ccncc1"
experimental_target = "hiPSC-derived neurons co-cultured with human primary astrocytes in 2D"
observable = "activation at 0.37 µM"
measured = 9

[[record]]
compound = "CNCCCC12CCC(c3ccccc31)c1ccccc12"
experimental_target = "hiPSC-derived neurons co-cultured with human primary astrocytes in 2D"
observable = "activation at 0.37 µM"
measured = -0.7

[[record]]
compound = "Cc1ccc(Nc2nccc(N(C)c3ccc4c(C)n(C)nc4c3)n2)cc1S(N)(=O)=O"
experimental_target = "hiPSC-derived neurons co-cultured with human primary astrocytes in 2D"
observable = "activation at 0.37 µM"
measured = -49

[[record]]
compound = "CCN(CC)CCCC(C)Nc1c2ccc(Cl)cc2nc2ccc(OC)cc12 (stereo not shown)"
experimental_target = "hiPSC-derived neurons co-cultured with human primary astrocytes in 2D"
observable = "activation at 0.37 µM"
measured = -2.7


Fill in the blank: the reported activation at 0.37 µM of CC[C@@H]1C(=O)OC[C@@H]1Cc1cncn1C is ____. 11.5

What value of activation at 0.37 µM has been recorded for this entry: CC(NC(C)(C)C)C(=O)c1cccc(Cl)c1 (stereo not shown) 12.7

----------
# Tested on: hiPSC-derived neurons co-cultured with human primary astrocytes in 3D
# Assay Summary: Ca2+ transient oscillation assay (FDSS), 3D spheroids
# Assay type: cell-based
# Assay Conditions: 33.33 µM; 60 min
Measured Peak width - 3D Mean values are reported for all entries that follow.
Just the number please, in % change from baseline, no unit attached.

[[record]]
compound = "O=C1NC(=O)C(c2ccccc2)(c2ccccc2)N1"
units_of_measure = "% change from baseline"
measured = 47.9

[[record]]
compound = "Cn1c(=O)c2[nH]cnc2n(C)c1=O"
units_of_measure = "% change from baseline"
measured = 12.2

[[record]]
compound = "NCCc1c[nH]c2ccc(O)cc12"
units_of_measure = "% change from baseline"
measured = "−52.3"

[[record]]
compound = "NC(=O)N1c2ccccc2C=Cc2ccccc21 [Carbamazepine]"
units_of_measure = "% change from baseline"
measured = 5.1

[[record]]
compound = "NS(=O)(=O)c1cc2c(cc1Cl)NC(C1CC3C=CC1C3)NS2(=O)=O (stereo not shown) [Cyclothiazide]"
units_of_measure = "% change from baseline"
measured = 64.7


What measured Peak width - 3D Mean goes with CC(=O)Oc1ccccc1C(=O)O ? 5.0

Peak width - 3D Mean lookup needed for CC(=O)OCC[N+](C)(C)C , thanks. 0.4

----------
# Tested on: hiPSC-derived neurons co-cultured with human primary astrocytes in 2D
# Assay Summary: Ca2+ transient oscillation assay (FDSS), 2D co-culture
# Format: cell-based
# Assay Conditions: Homo sapiens, 1 h; 10 µM; 60 min; read-out: Area under the curve - 2D Mean
Reported values of activation at 10 µM for individual entries

Use these answered entries as a reference point.
[[record]]
molecule = "CC[C@@H]1C(=O)OC[C@@H]1Cc1cncn1C"
measured = "22.8%"

[[record]]
molecule = "CCN(CC)CCCC(C)Nc1c2ccc(Cl)cc2nc2ccc(OC)cc12 (stereo not drawn)"
measured = "-84.7%"

[[record]]
molecule = "Cc1ccc(Nc2nccc(N(C)c3ccc4c(C)n(C)nc4c3)n2)cc1S(N)(=O)=O"
measured = "16.3%"


Query (molecule): OC(c1cc(C(F)(F)F)nc2c(C(F)(F)F)cccc12)C1CCCCN1 (stereo not drawn) ; field requested: activation at 10 µM -100%

If you can, please state the reported activation at 10 µM value of CC(NC(C)(C)C)C(=O)c1cccc(Cl)c1 (stereo not drawn) . 39.3%

Look up activation at 10 µM for this molecule: CCn1cc(C(=O)O)c(=O)c2cc(F)c(N3CCNCC3)nc21 49.3%

Give the measured activation at 10 µM of Nc1ccncc1 . 1.3%

Bench note: what activation at 10 µM did CNCCCC12CCC(c3ccccc31)c1ccccc12 show? -100%

What does the data say about its activation at 10 µM? Entry: CC(=O)Nc1ccc(O)cc1 13.2%

----------
# Test system: hiPSC-derived neurons co-cultured with human primary astrocytes in 3D
# Assay Summary: Ca2+ transient oscillation assay (FDSS), 3D spheroids
# Format: cell-based
# Assay Conditions: 33.33 µM; 60 min
Observable: Peak-to-peak interval - 3D Mean (% change from baseline)
API: value field is a number in % change from baseline; no unit string.

Use these answered entries as a reference point.
[[record]]
compound = "NC(=O)N1c2ccccc2C=Cc2ccccc21 [Carbamazepine]"
units_of_measure = "% change from baseline"
measured = 33.5

[[record]]
compound = "CC(=O)OCC[N+](C)(C)C"
units_of_measure = "% change from baseline"
measured = 38.9

[[record]]
compound = "Cn1c(=O)c2[nH]cnc2n(C)c1=O"
units_of_measure = "% change from baseline"
measured = "−21.2"

[[record]]
compound = "O=C1NC(=O)C(c2ccccc2)(c2ccccc2)N1"
units_of_measure = "% change from baseline"
measured = 17.7

[[record]]
compound = "CC(=O)Oc1ccccc1C(=O)O"
units_of_measure = "% change from baseline"
measured = "−1.7"

[[record]]
compound = "NCCc1c[nH]c2ccc(O)cc12"
units_of_measure = "% change from baseline"
measured = 29.2


Next item in the queue.
# lookup: Peak-to-peak interval - 3D Mean of NS(=O)(=O)c1cc2c(cc1Cl)NC(C1CC3C=CC1C3)NS2(=O)=O (stereo not shown) [Cyclothiazide] −30.0

----------
Catalogue of compounds with associated Peak amplitude - 3D Mean
# System: hiPSC-derived neurons co-cultured with human primary astrocytes in 3D
# Assay Summary: Ca2+ transient oscillation assay (FDSS), 3D spheroids
# Type: cell-based
# Assay Conditions: 33.33 µM; 60 min
# output: bare number, implied unit % change from baseline

[[record]]
compound = "NC(=O)N1c2ccccc2C=Cc2ccccc21 [Carbamazepine]"
measured = 93.5

[[record]]
compound = "NCCc1c[nH]c2ccc(O)cc12"
measured = "−3.1"

[[record]]
compound = "CC(=O)Oc1ccccc1C(=O)O"
measured = 135.8

[[record]]
compound = "O=C1NC(=O)C(c2ccccc2)(c2ccccc2)N1"
measured = 91.2

[[record]]
compound = "NS(=O)(=O)c1cc2c(cc1Cl)NC(C1CC3C=CC1C3)NS2(=O)=O (stereo not shown) [Cyclothiazide]"
measured = 113.7

[[record]]
compound = "Cn1c(=O)c2[nH]cnc2n(C)c1=O"
measured = 142.1


From here, focus on the item given below.
State its Peak amplitude - 3D Mean on hiPSC-derived neurons co-cultured with human primary astrocytes in 3D: CC(=O)OCC[N+](C)(C)C 105.2

----------
# Tested on: hiPSC-derived neurons co-cultured with human primary astrocytes in 3D
# Assay Summary: Ca2+ transient oscillation assay (FDSS), 3D spheroids
# Format: cell-based
# Assay Conditions: 1.11 µM; 60 min
Observable: Peak width - 3D Mean (% change from baseline)
Hi! Could you send only the number? It should be in % change from baseline, unit omitted.

[[record]]
compound = "CC[C@@H]1C(=O)OC[C@@H]1Cc1cncn1C"
measured = 6.7

[[record]]
compound = "CCN(CC)CCCC(C)Nc1c2ccc(Cl)cc2nc2ccc(OC)cc12 (stereo not drawn)"
measured = 4.2

[[record]]
compound = "CNCCCC12CCC(c3ccccc31)c1ccccc12"
measured = "−1.0"

[[record]]
compound = "CC(=O)Nc1ccc(O)cc1"
measured = 0.6

[[record]]
compound = "CC(NC(C)(C)C)C(=O)c1cccc(Cl)c1 (stereo not drawn)"
measured = 9.4


Enter reported Peak width - 3D Mean observed with hiPSC-derived neurons co-cultured with human primary astrocytes in 3D for C=C(C)[C@H]1CN[C@H](C(=O)O)[C@H]1CC(=O)O 10.6

For hiPSC-derived neurons co-cultured with human primary astrocytes in 3D, provide Peak width - 3D Mean of Cc1ccc(Nc2nccc(N(C)c3ccc4c(C)n(C)nc4c3)n2)cc1S(N)(=O)=O please. 7.7

Give recorded Peak width - 3D Mean with hiPSC-derived neurons co-cultured with human primary astrocytes in 3D for the following compound: Nc1ccncc1 7.7

hiPSC-derived neurons co-cultured with human primary astrocytes in 3D / Peak width - 3D Mean / N[C@@H](CCC(=O)O)C(=O)O [Glutamate] : value? 12.5

Report Peak width - 3D Mean for CN1CCc2cc3c(cc2[C@H]1[C@@H]1OC(=O)c2c1ccc1c2OCO1)OCO3 tested on hiPSC-derived neurons co-cultured with human primary astrocytes in 3D. 5.7

For the record CCn1cc(C(=O)O)c(=O)c2cc(F)c(N3CCNCC3)nc21 , what value of Peak width - 3D Mean is listed for hiPSC-derived neurons co-cultured with human primary astrocytes in 3D? −2.2

What measured Peak width - 3D Mean is associated with OC(c1cc(C(F)(F)F)nc2c(C(F)(F)F)cccc12)C1CCCCN1 (stereo not drawn) on hiPSC-derived neurons co-cultured with human primary astrocytes in 3D? 2.6
